# Organism: Rattus norvegicus
# experiment: Open TG-GATES - Regimen: Daily Repeat
# Type: toxicity, organism-based, Sprague-Dawley
# Set-up: regimen Daily Repeat, gender Male, age 6 weeks
# condition.summary: in vivo, po, 0 mg/kg, 72 h, tissue Plasma, route gavage, dose level Control, time 3 day
Exercise: for every item that follows, state its recorded DBIL.
Lab book: enter the figure in mg/dL, no units written.

Which DBIL is listed for CC(C)NNC(=O)c1ccncc1 ?
0

Same for CCOc1ccc(NC(C)=O)cc1
0.004

Can you handle NC1=NC(=O)C(c2ccccc2)O1 (stereo not drawn) next?
0.022

CN(C)CCC(c1ccc(Cl)cc1)c1ccccn1 (stereo not drawn) ?
0.014

Thanks! And Cc1nnc2n1-c1ccc(Cl)cc1C(c1ccccc1Cl)=NC2 ?
0.014

Now consider CN1C(=O)CCS(=O)(=O)C1c1ccc(Cl)cc1 (stereo not drawn) and answer again.
0.01

Then what about the molecule CNC(=C[N+](=O)[O-])NCCSCc1ccc(CN(C)C)o1 ?
0.1

Another molecule to check: CN/C(=N/CCSCc1nc[nH]c1C)NC#N
0.1

Follow-up item: CCCc1cc(=O)[nH]c(=S)[nH]1
0.022

Follow-up item: Brc1ccccc1
0.012

Also check Nc1c2c(nc3ccccc13)CCCC2
0.002

Try this molecule too: O=C(OC[C@H]1O[C@@H](OC(=O)c2cc(O)c(O)c(OC(=O)c3cc(O)c(O)c(O)c3)c2)[C@H](OC(=O)c2cc(O)c(O)c(OC(=O)c3cc(O)c(O)c(O)c3)c2)[C@@H](OC(=O)c2cc(O)c(O)c(OC(=O)c3cc(O)c(O)c(O)c3)c2)[C@@H]1OC(=O)c1cc(O)c(O)c(OC(=O)c2cc(O)c(O)c(O)c2)c1)c1cc(O)c(O)c(OC(=O)c2cc(O)c(O)c(O)c2)c1
0

Try this molecule next: COC(=O)C1=C(C)NC(C)=C(C(=O)OC)C1c1ccccc1[N+](=O)[O-]
0.014

* * *

# Species: Rattus norvegicus
# experiment: Open TG-GATES - Regimen: Single
# Type: toxicity, organism-based, Sprague-Dawley
# Design: regimen Single, gender Male, age 6 weeks
# condition.summary: in vivo, po, 1000 mg/kg, 9 h, tissue Plasma, route gavage, dose level High
So I've got a bunch of compounds here, and I need their gamma-GTP values.

Param item = CNC(=C[N+](=O)[O-])NCCSCc1ccc(CN(C)C)o1 [RANITIDINE] ; retrieve measured gamma-GTP.
1.2 IU/L

Follow-up entry: COC(=O)C1=C(C)NC(C)=C(C(=O)OC)C1c1ccccc1[N+](=O)[O-] [NIFEDIPINE]
1.4 IU/L

Also need O=C(OC[C@H]1O[C@@H](OC(=O)c2cc(O)c(O)c(OC(=O)c3cc(O)c(O)c(O)c3)c2)[C@H](OC(=O)c2cc(O)c(O)c(OC(=O)c3cc(O)c(O)c(O)c3)c2)[C@@H](OC(=O)c2cc(O)c(O)c(OC(=O)c3cc(O)c(O)c(O)c3)c2)[C@@H]1OC(=O)c1cc(O)c(O)c(OC(=O)c2cc(O)c(O)c(O)c2)c1)c1cc(O)c(O)c(OC(=O)c2cc(O)c(O)c(O)c2)c1 [TANNIC ACID] , thanks.
2 IU/L

Thanks! And Cc1nnc2n1-c1ccc(Cl)cc1C(c1ccccc1Cl)=NC2 [TRIAZOLAM] ?
1.4 IU/L

Please do the same for CN/C(=N/CCSCc1nc[nH]c1C)NC#N [CIMETIDINE] as well.
1.4 IU/L

* * *

Could you please report measured Ret for the items listed next?
# Species on record: Rattus norvegicus
# experiment: Open TG-GATES - Regimen: Single
# Assay type: toxicity, organism-based, Sprague-Dawley
# Design: regimen Single, gender Male, age 6 weeks
# condition.summary: in vivo, po, 100 mg/kg, 24 h, tissue Blood, route gavage, dose level Low
Quick note: give the figure in %, leave out the unit.

Using the record for O=C(OC[C@H]1O[C@@H](OC(=O)c2cc(O)c(O)c(OC(=O)c3cc(O)c(O)c(O)c3)c2)[C@H](OC(=O)c2cc(O)c(O)c(OC(=O)c3cc(O)c(O)c(O)c3)c2)[C@@H](OC(=O)c2cc(O)c(O)c(OC(=O)c3cc(O)c(O)c(O)c3)c2)[C@@H]1OC(=O)c1cc(O)c(O)c(OC(=O)c2cc(O)c(O)c(O)c2)c1)c1cc(O)c(O)c(OC(=O)c2cc(O)c(O)c(O)c2)c1 [TANNIC ACID] , report its Ret.
10.1

Try the compound Cc1nnc2n1-c1ccc(Cl)cc1C(c1ccccc1Cl)=NC2 [TRIAZOLAM]
8.2

* * *

# Species: Rattus norvegicus
# experiment: Open TG-GATES - Regimen: Single
# Type: toxicity, organism-based, Sprague-Dawley
# Design: regimen Single, gender Male, age 6 weeks
# condition.summary: in vivo, po, 0 mg/kg, 24 h, tissue Plasma, route gavage, dose level Control
measurement.kind: ALT (IU/L)
Write it as a number; the unit IU/L goes unstated.

Return reported ALT; argument: CC(C)NNC(=O)c1ccncc1
39.8

Then Brc1ccccc1 ?
50.8

What about this compound? CN1C(=O)CCS(=O)(=O)C1c1ccc(Cl)cc1 (stereo not given)
51.8

Another compound: CNC(=C[N+](=O)[O-])NCCSCc1ccc(CN(C)C)o1
38.8

Try this compound too: Nc1c2c(nc3ccccc13)CCCC2
43

What about this compound? O=C(OC[C@H]1O[C@@H](OC(=O)c2cc(O)c(O)c(OC(=O)c3cc(O)c(O)c(O)c3)c2)[C@H](OC(=O)c2cc(O)c(O)c(OC(=O)c3cc(O)c(O)c(O)c3)c2)[C@@H](OC(=O)c2cc(O)c(O)c(OC(=O)c3cc(O)c(O)c(O)c3)c2)[C@@H]1OC(=O)c1cc(O)c(O)c(OC(=O)c2cc(O)c(O)c(O)c2)c1)c1cc(O)c(O)c(OC(=O)c2cc(O)c(O)c(O)c2)c1
41

Okay, and CCOc1ccc(NC(C)=O)cc1 ?
37.2

Could you do the same for CN(C)CCC(c1ccc(Cl)cc1)c1ccccn1 (stereo not given) , please?
46

Then what about the compound Cc1nnc2n1-c1ccc(Cl)cc1C(c1ccccc1Cl)=NC2 ?
50

Same read-out for COC(=O)C1=C(C)NC(C)=C(C(=O)OC)C1c1ccccc1[N+](=O)[O-] ?
44

* * *

# Species on record: Rattus norvegicus
# experiment: Open TG-GATES - Regimen: Daily Repeat
# Type: toxicity, organism-based, Sprague-Dawley
# Set-up: regimen Daily Repeat, gender Male, age 6 weeks
# condition.summary: in vivo, po, 0 mg/kg, […], tissue Plasma, route gavage, dose level Control, time 28 day
measurement.kind: AST (IU/L)
Expressed in IU/L, but write only the number.

Need AST, item CC(C)NNC(=O)c1ccncc1
65.4

Another: Brc1ccccc1
64

What do you get for O=C(OC[C@H]1O[C@@H](OC(=O)c2cc(O)c(O)c(OC(=O)c3cc(O)c(O)c(O)c3)c2)[C@H](OC(=O)c2cc(O)c(O)c(OC(=O)c3cc(O)c(O)c(O)c3)c2)[C@@H](OC(=O)c2cc(O)c(O)c(OC(=O)c3cc(O)c(O)c(O)c3)c2)[C@@H]1OC(=O)c1cc(O)c(O)c(OC(=O)c2cc(O)c(O)c(O)c2)c1)c1cc(O)c(O)c(OC(=O)c2cc(O)c(O)c(O)c2)c1 ?
56.8

Another compound to look at: CN/C(=N/CCSCc1nc[nH]c1C)NC#N
59.6

Now try Nc1c2c(nc3ccccc13)CCCC2 .
61.6

Also need CNC(=C[N+](=O)[O-])NCCSCc1ccc(CN(C)C)o1 , thanks.
61.4

Request: Cc1nnc2n1-c1ccc(Cl)cc1C(c1ccccc1Cl)=NC2
62

Request: COC(=O)C1=C(C)NC(C)=C(C(=O)OC)C1c1ccccc1[N+](=O)[O-]
63

For CN1C(=O)CCS(=O)(=O)C1c1ccc(Cl)cc1 (stereo not drawn) then?
62.8

Queued: CN(C)CCC(c1ccc(Cl)cc1)c1ccccn1 (stereo not drawn)
60.4

And the next one, CCCc1cc(=O)[nH]c(=S)[nH]1 ?
59.8

// next record CCOc1ccc(NC(C)=O)cc1
68.2

// same read-out, input: NC1=NC(=O)C(c2ccccc2)O1 (stereo not drawn)
61.6

* * *

Task for the reader: assign each of the following molecules its reported K.
# Species on record: Rattus norvegicus
# experiment: Open TG-GATES - Regimen: Daily Repeat
# Format: toxicity, organism-based, Sprague-Dawley
# Design: regimen Daily Repeat, gender Male, age 6 weeks
# condition.summary: in vivo, po, 1000 mg/kg, […], tissue Plasma, route gavage, dose level High, time 14 day
Note: unit meq/L is implicit; provide only the numeric part.

Give the measured K of CN/C(=N/CCSCc1nc[nH]c1C)NC#N .
3.7

What about Cc1nnc2n1-c1ccc(Cl)cc1C(c1ccccc1Cl)=NC2 ?
4.1

Same for COC(=O)C1=C(C)NC(C)=C(C(=O)OC)C1c1ccccc1[N+](=O)[O-]
4

Next entry: CCOc1ccc(NC(C)=O)cc1
4.5

// query: O=C(OC[C@H]1O[C@@H](OC(=O)c2cc(O)c(O)c(OC(=O)c3cc(O)c(O)c(O)c3)c2)[C@H](OC(=O)c2cc(O)c(O)c(OC(=O)c3cc(O)c(O)c(O)c3)c2)[C@@H](OC(=O)c2cc(O)c(O)c(OC(=O)c3cc(O)c(O)c(O)c3)c2)[C@@H]1OC(=O)c1cc(O)c(O)c(OC(=O)c2cc(O)c(O)c(O)c2)c1)c1cc(O)c(O)c(OC(=O)c2cc(O)c(O)c(O)c2)c1
4.6

Next up: CNC(=C[N+](=O)[O-])NCCSCc1ccc(CN(C)C)o1
4.2
